Entry source: paper PMC8037669

- system_under_test: tyrosyl-DNA phosphodiesterase 1 (Tdp1) (Homo sapiens, UniProt Q9NUW8)
- Construct: Purified Tdp1 (1.5 nM) triggered the reaction
- Sequence (Q9NUW8 whole entry): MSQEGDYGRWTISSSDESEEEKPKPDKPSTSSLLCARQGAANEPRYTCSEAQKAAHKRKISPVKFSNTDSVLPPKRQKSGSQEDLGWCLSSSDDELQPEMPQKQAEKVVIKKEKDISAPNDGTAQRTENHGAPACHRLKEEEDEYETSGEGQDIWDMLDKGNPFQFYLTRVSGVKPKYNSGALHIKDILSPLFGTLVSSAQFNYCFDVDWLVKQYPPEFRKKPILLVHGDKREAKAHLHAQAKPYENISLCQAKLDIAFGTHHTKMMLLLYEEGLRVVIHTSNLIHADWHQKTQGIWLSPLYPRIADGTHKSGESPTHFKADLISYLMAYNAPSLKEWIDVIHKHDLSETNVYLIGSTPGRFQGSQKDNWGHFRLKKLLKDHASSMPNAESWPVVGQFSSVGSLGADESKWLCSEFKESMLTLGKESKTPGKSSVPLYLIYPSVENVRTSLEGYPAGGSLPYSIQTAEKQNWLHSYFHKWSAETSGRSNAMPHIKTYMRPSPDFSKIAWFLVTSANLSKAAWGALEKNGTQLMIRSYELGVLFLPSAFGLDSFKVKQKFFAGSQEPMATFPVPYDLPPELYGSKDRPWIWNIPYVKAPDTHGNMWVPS
- run_description: Tdp1 activity, fluorescent oligonucleotide biosensor (FAM/BHQ1) assay
- Format: biochemical
- condition_details: purified Tdp1 1.5 nM, 50 nM biosensor; read-out: Tdp1 inhibiting activity IC50
pIC50: −log10 of the molar value.
List of pIC50 values.
measurement_kind: pIC50

compound | measurement_kind | numeric_result
COc1cc(Br)c2c3c1OS(=O)(=O)C(C)C3N1CCc3cc4c(cc3C1=C2)OCO4 (stereo not drawn) [18b] | pIC50 | 5.95
CCC1C2c3c(c(Br)cc(OC)c3OS1(=O)=O)C=C1c3cc4c(cc3CCN12)OCO4 (stereo not drawn) [18c] | pIC50 | 6.25
CCC1C2c3c(ccc(OC)c3OS1(=O)=O)C=C1c3cc4c(cc3CCN12)OCO4 (stereo not drawn) [10c] | pIC50 | 5.26
